Measured residual activity values are reported for all entries that follow.
# target: ERBB2 (human) (UniProt P04626)
# Sequence (P04626 whole entry, looked up): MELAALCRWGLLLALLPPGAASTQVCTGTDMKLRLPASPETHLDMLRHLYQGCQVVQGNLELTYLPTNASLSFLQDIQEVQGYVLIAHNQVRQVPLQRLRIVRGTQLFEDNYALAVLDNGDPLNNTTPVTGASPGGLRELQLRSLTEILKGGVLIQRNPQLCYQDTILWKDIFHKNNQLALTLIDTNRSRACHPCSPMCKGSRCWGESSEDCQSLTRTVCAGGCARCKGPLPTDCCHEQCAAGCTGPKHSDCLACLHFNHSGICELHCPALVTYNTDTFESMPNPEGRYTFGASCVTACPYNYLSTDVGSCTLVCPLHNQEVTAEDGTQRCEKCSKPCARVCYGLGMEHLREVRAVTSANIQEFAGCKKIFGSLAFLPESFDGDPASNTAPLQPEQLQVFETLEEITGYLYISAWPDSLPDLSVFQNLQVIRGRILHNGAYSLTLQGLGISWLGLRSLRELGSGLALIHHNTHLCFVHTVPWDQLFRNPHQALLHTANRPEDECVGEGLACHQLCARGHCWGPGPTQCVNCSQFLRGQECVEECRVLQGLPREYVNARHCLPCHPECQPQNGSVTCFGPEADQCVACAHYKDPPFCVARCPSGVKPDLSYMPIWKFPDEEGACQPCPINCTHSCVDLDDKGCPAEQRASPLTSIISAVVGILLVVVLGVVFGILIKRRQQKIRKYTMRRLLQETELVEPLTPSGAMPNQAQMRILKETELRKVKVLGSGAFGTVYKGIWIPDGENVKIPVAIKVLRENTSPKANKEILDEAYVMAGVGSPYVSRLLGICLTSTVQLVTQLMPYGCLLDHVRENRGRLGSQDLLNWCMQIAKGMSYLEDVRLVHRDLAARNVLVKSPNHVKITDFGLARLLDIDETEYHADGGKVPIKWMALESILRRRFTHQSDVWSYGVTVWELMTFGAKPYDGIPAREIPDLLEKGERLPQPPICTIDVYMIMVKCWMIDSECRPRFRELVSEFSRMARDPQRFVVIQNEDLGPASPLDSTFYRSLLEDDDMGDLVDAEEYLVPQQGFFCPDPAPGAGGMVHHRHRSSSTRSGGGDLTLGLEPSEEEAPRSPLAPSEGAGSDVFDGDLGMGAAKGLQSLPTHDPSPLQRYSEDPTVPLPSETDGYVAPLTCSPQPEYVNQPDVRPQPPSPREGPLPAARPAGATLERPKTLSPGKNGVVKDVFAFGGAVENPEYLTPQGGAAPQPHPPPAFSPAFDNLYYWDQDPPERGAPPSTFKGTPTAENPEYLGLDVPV
# measurement.protocol: radiometric filter-binding kinase assay, Kinase HotSpot
# condition.notes: compound 0.5 µM; ATP 10 µM
Field: numeric (%). Do not append units.

Sample records with residual activity:
compound: CCn1cnc2c(Nc3cccc(Cl)c3)nc(N[C@@H]3CCCC[C@@H]3N)nc21
target: ERBB2 (human) (UniProt P04626)
residual activity [%]: 95.6
//
compound: Oc1ccc(Nc2nc(-c3ccc(Cl)cc3)cs2)cc1
target: ERBB2 (human) (UniProt P04626)
residual activity [%]: 96.9
//
compound: O=C1NC(=O)/C(=C\c2ccc3nccnc3c2)S1
target: ERBB2 (human) (UniProt P04626)
residual activity [%]: 107

Query compound follows.
Lab note: record residual activity of Cn1nc2c3c(cccc31)C(=O)c1ccccc1-2 tested on ERBB2 (human) (UniProt P04626).
96.9

* * *

Reported values of residual activity for individual entries
# target: CSNK2A1 (human)
# measurement.protocol: radiometric filter-binding kinase assay, Kinase HotSpot
# condition.notes: compound 0.5 µM; ATP 10 µM

compound: Cn1sc(=O)n(Cc2ccccc2)c1=O
reading: 95.4%

compound: O=C1Nc2ccccc2/C1=C1/Nc2ccccc2/C1=N\OCCC(O)CO (stereo unspecified)
reading: 57.6%

compound: Cn1cnc2cc3c(Nc4cccc(Br)c4)ncnc3cc21
reading: 99%

compound: O=C1Cc2c([nH]c3ccc(Br)cc23)-c2ccccc2N1
reading: 79.1%

compound: O=C1NC(=O)C(c2c[nH]c3ccccc23)=C1c1c[nH]c2ccccc12
reading: 106%

Moving on to another compound below.
Fill in residual activity for record CN(C)C[C@H]1CCn2c(c(C3=C(c4cn(C)c5ccccc45)C(=O)NC3=O)c3ccccc32)C1
98.9%

* * *

Each item that follows carries a reported residual activity.
# target: AKT3 (human) (UniProt Q9Y243)
# Sequence (Q9Y243 whole entry, looked up): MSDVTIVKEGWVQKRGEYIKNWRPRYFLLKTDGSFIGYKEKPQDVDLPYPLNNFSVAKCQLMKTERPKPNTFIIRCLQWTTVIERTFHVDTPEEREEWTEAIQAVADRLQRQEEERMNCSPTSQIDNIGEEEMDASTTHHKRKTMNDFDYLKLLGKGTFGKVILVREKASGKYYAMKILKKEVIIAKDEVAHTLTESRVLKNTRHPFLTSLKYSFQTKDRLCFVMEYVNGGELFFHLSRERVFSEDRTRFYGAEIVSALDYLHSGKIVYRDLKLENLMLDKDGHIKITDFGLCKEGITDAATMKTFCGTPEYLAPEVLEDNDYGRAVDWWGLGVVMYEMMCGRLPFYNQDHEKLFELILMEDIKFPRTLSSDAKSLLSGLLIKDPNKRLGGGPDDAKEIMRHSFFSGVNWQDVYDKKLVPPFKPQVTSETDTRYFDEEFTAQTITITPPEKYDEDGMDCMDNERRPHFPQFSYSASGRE
# measurement.protocol: radiometric filter-binding kinase assay, Kinase HotSpot
# condition.notes: compound 0.5 µM; ATP 10 µM
Please give a number only; it is taken to be in %.

Reference set, count: 8
compound: Nc1nccc(-c2c(-c3ccc(F)cc3)ncn2C2CCNCC2)n1
residual activity, %: 92.6
--
compound: O=C(Nc1cccc(Nc2cc(Nc3cccc(C(F)(F)F)c3)ncn2)c1)C1CC1
residual activity, %: 99.4
--
compound: COc1ccc(OC)c2c(=S)c3ccccc3[nH]c12
residual activity, %: 92
--
compound: Cn1cnc2cc3c(Nc4cccc(Br)c4)ncnc3cc21
residual activity, %: 89.5
--
compound: CCn1cnc2c(Nc3cccc(Cl)c3)nc(N[C@@H]3CCCC[C@@H]3N)nc21
residual activity, %: 95.8
--
compound: CN(C)C[C@H]1CCn2c(c(C3=C(c4cn(C)c5ccccc45)C(=O)NC3=O)c3ccccc32)C1
residual activity, %: 56.3
--
compound: O=C1NC(=O)C(c2c[nH]c3ccccc23)=C1c1c[nH]c2ccccc12
residual activity, %: 90
--
compound: Oc1ccc(Nc2nc(-c3ccc(Cl)cc3)cs2)cc1
residual activity, %: 105

Please report residual activity for the following compound: O=C1Nc2ccccc2/C1=C1\Nc2ccccc2\C1=N/O
98.8

Quick one: give measured residual activity for O=C1Nc2ccccc2/C1=C1/Nc2ccccc2/C1=N\OCCC(O)CO (stereo not given)
92.9
